Biological target: human Nav1.5 (Homo sapiens (Human), UniProt Q14524)
Sequence (Q14524 whole entry): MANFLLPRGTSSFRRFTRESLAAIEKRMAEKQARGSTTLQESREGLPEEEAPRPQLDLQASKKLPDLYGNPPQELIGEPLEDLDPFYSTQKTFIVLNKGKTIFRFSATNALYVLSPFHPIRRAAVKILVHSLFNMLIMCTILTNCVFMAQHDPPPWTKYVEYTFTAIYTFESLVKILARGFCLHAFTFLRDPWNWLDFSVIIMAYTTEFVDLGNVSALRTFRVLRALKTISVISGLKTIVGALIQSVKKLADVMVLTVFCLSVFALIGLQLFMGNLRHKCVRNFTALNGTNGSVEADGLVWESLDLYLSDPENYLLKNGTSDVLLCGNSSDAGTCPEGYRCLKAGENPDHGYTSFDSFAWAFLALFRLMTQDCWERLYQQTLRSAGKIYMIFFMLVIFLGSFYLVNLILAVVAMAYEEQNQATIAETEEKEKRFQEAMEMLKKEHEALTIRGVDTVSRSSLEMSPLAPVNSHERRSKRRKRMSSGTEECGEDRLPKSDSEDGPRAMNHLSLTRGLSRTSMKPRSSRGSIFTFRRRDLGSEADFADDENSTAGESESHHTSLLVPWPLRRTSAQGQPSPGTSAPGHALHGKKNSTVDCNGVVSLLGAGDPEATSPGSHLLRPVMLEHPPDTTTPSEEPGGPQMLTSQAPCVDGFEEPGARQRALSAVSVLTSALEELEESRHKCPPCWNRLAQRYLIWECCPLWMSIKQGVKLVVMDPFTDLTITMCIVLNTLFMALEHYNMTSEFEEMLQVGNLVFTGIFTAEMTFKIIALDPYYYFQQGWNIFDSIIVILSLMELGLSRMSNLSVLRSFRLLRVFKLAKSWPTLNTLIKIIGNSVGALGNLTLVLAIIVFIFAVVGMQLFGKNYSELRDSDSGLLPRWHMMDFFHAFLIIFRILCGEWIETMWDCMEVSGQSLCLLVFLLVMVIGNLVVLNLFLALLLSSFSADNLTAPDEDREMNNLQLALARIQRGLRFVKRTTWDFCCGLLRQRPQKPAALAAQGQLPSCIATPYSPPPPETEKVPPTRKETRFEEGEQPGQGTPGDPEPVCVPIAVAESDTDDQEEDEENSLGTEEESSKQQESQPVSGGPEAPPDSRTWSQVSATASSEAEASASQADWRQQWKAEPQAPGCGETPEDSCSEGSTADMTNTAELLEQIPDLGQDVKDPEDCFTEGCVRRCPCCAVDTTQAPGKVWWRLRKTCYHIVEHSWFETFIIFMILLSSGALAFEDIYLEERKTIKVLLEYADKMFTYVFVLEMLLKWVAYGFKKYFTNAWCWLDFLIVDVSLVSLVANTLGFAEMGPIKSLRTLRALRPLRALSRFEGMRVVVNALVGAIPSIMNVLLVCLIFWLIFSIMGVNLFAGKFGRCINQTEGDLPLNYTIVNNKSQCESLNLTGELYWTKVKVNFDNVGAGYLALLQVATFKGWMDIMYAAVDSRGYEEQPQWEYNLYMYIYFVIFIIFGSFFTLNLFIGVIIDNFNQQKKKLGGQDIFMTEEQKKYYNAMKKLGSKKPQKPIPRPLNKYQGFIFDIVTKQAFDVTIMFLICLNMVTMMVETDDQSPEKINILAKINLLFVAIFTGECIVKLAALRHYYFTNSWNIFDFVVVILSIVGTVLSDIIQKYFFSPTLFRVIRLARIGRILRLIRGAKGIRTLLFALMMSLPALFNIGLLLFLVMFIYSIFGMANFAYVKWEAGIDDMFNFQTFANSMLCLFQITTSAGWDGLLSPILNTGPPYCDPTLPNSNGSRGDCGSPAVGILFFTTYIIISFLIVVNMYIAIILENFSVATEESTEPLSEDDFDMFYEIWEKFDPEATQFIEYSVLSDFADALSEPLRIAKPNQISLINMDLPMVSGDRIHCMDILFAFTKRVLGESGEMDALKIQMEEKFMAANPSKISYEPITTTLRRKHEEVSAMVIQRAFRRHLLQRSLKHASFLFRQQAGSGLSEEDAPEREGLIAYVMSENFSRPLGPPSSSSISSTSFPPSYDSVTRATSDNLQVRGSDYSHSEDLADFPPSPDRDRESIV
Experiment: Human Nav1.5 inhibitory activity evaluation (automated patch clamp QPatch16X, HEK293 cells stably expressing human Nav1.5)
Format: cell-based
Conditions: HEK293 cells stably expressing human Nav1.5, automated patch clamp QPatch16X
Method: Test Example 2: Human Nav1.5 Inhibitory Activity Evaluation A cell line in which human Nav1.5 was stably expressed in HEK293 cells was used. […] The amount of current through human Nav1.5 was recorded using a fully automatic patch clamp device QPatch16X at room temperature. […]
pIC50: −log10 of the molar value.
EXPERIMENTAL ENDPOINT: pIC50

Observe how each entry below is paired with its result.
CCOCc1ccc2c(c1)C[C@@H](NC(=O)c1cc3n(n1)CCC(c1ccccc1F)O3)CO2 (stereo partly shown)    5.52 to 6.00
O=C(N[C@H]1COc2ccc(-c3ccccn3)cc2C1)c1cc2n(n1)CCC(COCC1CC1)O2 (single isomer, unassigned) [111 (isomer A)]    5.52 to 6.00
O=C(NC1COc2ccc(F)cc2C1)c1cn2c(n1)CCC(C(F)(F)F)C2 (stereo not shown)    ≤ 5.52
O=C(NCCc1cccc(C(F)(F)F)c1)c1cn2c(n1)CNC(c1ccccc1)C2 (stereo not shown)    ≤ 5.52
CC(C)COC1CCc2nc(C(=O)N[C@H]3COc4ccccc4C3)cn2C1 (stereo partly shown)    ≤ 5.52
O=C(N[C@H]1COc2ccccc2C1)c1nc2n(c1Cl)CC(c1ccccc1)CC2 (stereo partly shown)    5.52 to 6.00
CCOCC1CCn2nc(C(=O)N[C@H]3COc4ccc(-c5ccccn5)cc4C3)cc2O1 (single isomer, unassigned) [124 (isomer A)]    ≤ 5.52
Cc1ccc(C2Cn3cc(C(=O)N[C@H]4COc5ccccc5C4)nc3CN2)s1 (stereo partly shown)    ≤ 5.52

# pIC50 (compound: O=C(N[C@H]1COc2ccccc2C1)c1cn2c(n1)CCC(C1(F)CCC1)C2 (stereo partly shown) ) is 5.52 to 6.00

What the record says about CC(C)(C)OCC1CCc2nc(C(=O)N[C@H]3COc4ccccc4C3)cn2C1 (stereo partly shown) : pIC50 is ≤ 5.52

pIC50 reported for this compound CCC1CCn2nc(C(=O)N[C@H]3COc4ccc(Cl)cc4C3)cc2O1 (stereo partly shown) : 5.52 to 6.00

The recorded pIC50 for CC1(COCC2CCn3nc(C(=O)N[C@H]4COc5ccc(C#N)cc5C4)cc3O2)CC1 (single isomer, unassigned) [113 (isomer A)] is 5.52 to 6.00

// CN1Cc2nc(C(=O)NCCc3ccccc3)cn2CC1c1ccccc1 (stereo not shown) : pIC50 value = ≤ 5.52
